Assign subG0 (percentage of cells in phase) to each entry below.
# System: MDA-MB-468 cells
# testDescription: Cell cycle analysis using flow cytometry
# Format: cell-based
# testSettings: drug at PI80, 72 hours
Write the value as a bare number.

Problem: API: value(readout= subG0 (percentage of cells in phase), system= MDA-MB-468 cells, query= C#CCCCC(F)/C=C/C(=O)NC1(c2ccc(-c3nc4ccn5c(=O)[nH]nc5c4cc3-c3ccccc3)cc2)CCC1.Cl (centres unmarked) )
Solution: 0.8

Problem: API: value(readout= subG0 (percentage of cells in phase), system= MDA-MB-468 cells, query= C#CCCCC(O)/C=C/C(=O)NC1(c2ccc(-c3nc4ccn5c(=O)[nH]nc5c4cc3-c3ccccc3)cc2)CCC1.Cl (centres unmarked) )
Solution: 5.5

Problem: API: value(readout= subG0 (percentage of cells in phase), system= MDA-MB-468 cells, query= C#CCCCC(O)C=CC=O (centres unmarked) )
Solution: 18.2

Problem: API: value(readout= subG0 (percentage of cells in phase), system= MDA-MB-468 cells, query= CCn1c(-c2nonc2N)nc2c(C#CC(C)(C)O)ncc(OC[C@H]3CCCNC3)c21 )
Solution: 0.92

Problem: API: value(readout= subG0 (percentage of cells in phase), system= MDA-MB-468 cells, query= NC1(c2ccc(-c3nc4ccn5c(=O)[nH]nc5c4cc3-c3ccccc3)cc2)CCC1 )
Solution: 0.3

====

Assign S (percentage of cells in phase) to each entry below.
# Test system: MDA-MB-468 cells
# testDescription: Cell cycle analysis using flow cytometry
# Format: cell-based
# testSettings: drug at PI60, 72 hours
Write the value as a bare number.

Problem: API: value(readout= S (percentage of cells in phase), system= MDA-MB-468 cells, query= C#CCCCC(O)/C=C/C(=O)NC1(c2ccc(-c3nc4ccn5c(=O)[nH]nc5c4cc3-c3ccccc3)cc2)CCC1.Cl (centres unmarked) )
Solution: 25.9

Problem: API: value(readout= S (percentage of cells in phase), system= MDA-MB-468 cells, query= C#CCCCC(F)/C=C/C(=O)NC1(c2ccc(-c3nc4ccn5c(=O)[nH]nc5c4cc3-c3ccccc3)cc2)CCC1.Cl (centres unmarked) )
Solution: 18.6

Problem: API: value(readout= S (percentage of cells in phase), system= MDA-MB-468 cells, query= CC(C)NC[C@@H](C(=O)N1CCN(c2ncnc3c2[C@H](C)C[C@H]3O)CC1)c1ccc(Cl)cc1 )
Solution: 12.1

Problem: API: value(readout= S (percentage of cells in phase), system= MDA-MB-468 cells, query= C#CCCCC(O)C=CC=O (centres unmarked) )
Solution: 26.3

Problem: API: value(readout= S (percentage of cells in phase), system= MDA-MB-468 cells, query= NC1(c2ccc(-c3nc4ccn5c(=O)[nH]nc5c4cc3-c3ccccc3)cc2)CCC1 )
Solution: 25.4

====

# Test system: MDA-MB-468 cells
# testDescription: Cell cycle analysis using flow cytometry
# Assay type: cell-based
# testSettings: drug at PI60, 72 hours
# Method: MDA-MB-468 cells in a 6-well plate at 10% confluence were treated with HNE alkyne or the indicated drug at PI60 or PI80 concentration for 72 hours at 37° C. Negative control contained the equivalent volume of DMSO. Cells were grown and analyzed in separate batches of 1-2 replicates per condition that were run 2-3 times each. Each time the data points were normalized to the control set for each batch. […]
endpointName: subG0 (percentage of cells in phase)
Write the value as a bare number.

Problem: API: value(readout= subG0 (percentage of cells in phase), system= MDA-MB-468 cells, query= NC1(c2ccc(-c3nc4ccn5c(=O)[nH]nc5c4cc3-c3ccccc3)cc2)CCC1 )
Solution: 0.3

Problem: API: value(readout= subG0 (percentage of cells in phase), system= MDA-MB-468 cells, query= C#CCCCC(O)/C=C/C(=O)NC1(c2ccc(-c3nc4ccn5c(=O)[nH]nc5c4cc3-c3ccccc3)cc2)CCC1.Cl (centres unmarked) )
Solution: 0.4

Problem: API: value(readout= subG0 (percentage of cells in phase), system= MDA-MB-468 cells, query= C#CCCCC(F)/C=C/C(=O)NC1(c2ccc(-c3nc4ccn5c(=O)[nH]nc5c4cc3-c3ccccc3)cc2)CCC1.Cl (centres unmarked) )
Solution: 0.5

Problem: API: value(readout= subG0 (percentage of cells in phase), system= MDA-MB-468 cells, query= C#CCCCC(O)C=CC=O (centres unmarked) )
Solution: 3.7

Problem: API: value(readout= subG0 (percentage of cells in phase), system= MDA-MB-468 cells, query= CC(C)NC[C@@H](C(=O)N1CCN(c2ncnc3c2[C@H](C)C[C@H]3O)CC1)c1ccc(Cl)cc1 )
Solution: 1.64
